System: Monocotyledonous and dicotyledonous test plants
Experiment: Herbicidal action before emergence of the plants (pre-emergence action), greenhouse pot test, 9-level rating after 4 weeks
Type: in vivo
Conditions: Abutilon, 250 g/ha, rated after 4 weeks, 9-level scale
Kindly return yes (1) if reported Pre-emergence action rating, Abutilon is no lower than 2; return no (0) if it is lower.

Examples with answers:
Form field: Pre-emergence action rating, Abutilon at least 2? Entry: COc1cc(OC)nc(SCc2nc(C(F)(F)F)ccc2C(=O)C2=C(O)C3CCC(C3)C2=O)n1 (stereo not drawn) [A830-B52] yes (1)

Would you mind doing O=C(C1=C(O)C2CCC(C2)C1=O)c1ccc(C(F)(F)F)nc1COCCCO (stereo not drawn) [A847-B52] as well? yes (1)

Would you mind doing Cn1ncc(C(=O)c2ccc(C(F)(F)F)nc2COCC(F)(F)F)c1O [A834-C5] as well? no (0)

Would you mind doing COCCOCc1c(C(=O)C2=C(O)C3CCC(C3)C2=O)ccc(C(F)(F)F)[n+]1[O-] (stereo not drawn) [A736-B52] as well? no (0)

Would you mind doing COCc1nc(C(F)(F)F)ccc1C(=O)c1c(C)nn(C)c1O [A1-C2] as well? yes (1)

***
Form field: Pre-emergence action rating, Abutilon at least 2? Entry: CCOCc1nc(C(F)(F)F)ccc1C(=O)c1cnn(C)c1O [A2-C5] no (0)

Would you mind doing CCCOCCOCc1nc(C(F)(F)F)ccc1C(=O)C1=C(O)C2CCC(C2)C1=O (stereo not drawn) [A841-B52] as well? no (0)

Would you mind doing O=C(C1=C(O)C2CCC(C2)C1=O)c1ccc(C(F)(F)F)nc1COCC1CCCO1 (stereo not drawn) [A848-B52] as well? yes (1)

====

Collected Post-emergence action rating, Amaranth values appear next to each entry.
Test system: Monocotyledonous and dicotyledonous test plants
Assay: Post-emergence herbicidal action, greenhouse pot test, sprayed at the 2- to 3-leaf stage, 9-level rating after 2 to 3 weeks
Assay type: in vivo
Conditions: Amaranth, 250 g/ha, rated after 2 to 3 weeks, 9-level scale

These recorded examples may help you get a feel for the data.
What measured Post-emergence action rating, Amaranth goes with CCCCCCCC(=O)OCc1nc(C(F)(F)F)ccc1C(=O)C1=C(O)C2CCC(C2)C1=O (centres unmarked) ? 3

Would you mind doing O=C(C1=C(O)C2CCC(C2)C1=O)c1ccc(C(F)(F)F)nc1COCCOCC(F)(F)F (centres unmarked) as well? 2

Would you mind doing O=C(C1=C(O)C2CCC(C2)C1=O)c1ccc(C(F)(F)F)nc1COCCCl (centres unmarked) as well? 2

Would you mind doing CC(=O)OCc1nc(C(F)(F)F)ccc1C(=O)C1=C([O-])C2CCC(C2)C1=O.[K+] (centres unmarked) as well? 3

Would you mind doing C[S+]([O-])CCOCc1nc(C(F)(F)F)ccc1C(=O)C1=C(O)C2CCC(C2)C1=O (centres unmarked) as well? 2

***
What measured Post-emergence action rating, Amaranth goes with O=C(C1=C(O)C2CCC(C2)C1=O)c1ccc(C(F)(F)F)nc1COC1CCCCC1 (centres unmarked) ? 2

Would you mind doing COCCOCc1nc(C(F)(F)F)ccc1C(=O)C1=C(O)CCC2(CC2)C1=O as well? 2

Would you mind doing COCCOCc1nc(C(F)(F)F)ccc1C(=O)c1cnn(C)c1O as well? 1
